Measured pIC50, listed per entry.
Test system: mTORc1 signaling, pS6 (Ser240/244) in MEF TSCl−/− cells
Test: Cell-based assay for rapalog potency (pS6) in MEF TSCl−/− cells
Settings: Mus musculus, 2 hours treatment, average from multiple assays
pIC50: −log10 of the molar value.
Assay readout: pIC50

[
  {
    "Compound": "CCCS(=O)(=O)N[C@H]1C[C@@H]2CC[C@@H](C)[C@@](O)(O2)C(=O)C(=O)N2CCCC[C@H]2C(=O)O[C@H]([C@H](C)C[C@@H]2CC[C@@H](O)[C@H](OC)C2)CC[C@H](C)/C=C(\\C)[C@@H](O)[C@@H](OC)C(=O)[C@H](C)C[C@H](C)/C=C/C=C/C=C/1C [Compound 5]",
    "Assay readout": "pIC50",
    "Reported measurement": 8.74
  },
  {
    "Compound": "CO[C@@H]1C[C@H](C[C@@H](C)[C@@H]2CC[C@H](C)/C=C(\\C)[C@@H](O)[C@@H](OC)C(=O)[C@H](C)C[C@H](C)/C=C/C=C/C=C(\\C)[C@@H](NS(=O)(=O)CC(C)C)C[C@@H]3CC[C@@H](C)[C@@](O)(O3)C(=O)C(=O)N3CCCC[C@H]3C(=O)O2)CC[C@H]1O [Compound 9]",
    "Assay readout": "pIC50",
    "Reported measurement": 8.57
  },
  {
    "Compound": "CO[C@@H]1C[C@H](C[C@@H](C)[C@@H]2CC[C@H](C)/C=C(\\C)[C@@H](O)[C@@H](OC)C(=O)[C@H](C)C[C@H](C)/C=C/C=C/C=C(\\C)[C@H](NS(C)(=O)=O)C[C@@H]3CC[C@@H](C)[C@@](O)(O3)C(=O)C(=O)N3CCCC[C@H]3C(=O)O2)CC[C@@H]1n1cnnn1 [Compound 21]",
    "Assay readout": "pIC50",
    "Reported measurement": 8.68
  },
  {
    "Compound": "CO[C@@H]1C[C@H](C[C@@H](C)[C@@H]2CC[C@H](C)/C=C(\\C)[C@@H](O)[C@@H](OC)C(=O)[C@H](C)C[C@H](C)/C=C/C=C/C=C(\\C)[C@H](N)C[C@@H]3CC[C@@H](C)[C@@](O)(O3)C(=O)C(=O)N3CCCC[C@H]3C(=O)O2)CC[C@H]1O [Compound 29]",
    "Assay readout": "pIC50",
    "Reported measurement": 7.52
  }
]
